substrate: CCCCCCCCCCCCCCCCOC[C@@H](O)COP(=O)([O-])OCC[N+](C)(C)C; experiment: released choline by choline oxidase/peroxidase colorimetric assay, Michaelis-Menten fit; assay type: biochemical, Thermocrispum sp. RD004668; settings: pH 8.0, 50 °C, 1 min, 2 mM CaCl2, substrate micelles
Field: Km. Provide a value for each of the proteins that follow.
Give just the numeric value; µM need not be written.

Given item LyPls-PLD (lysoplasmalogen-specific phospholipase D) (Thermocrispum sp. RD004668; W282G) (protein, recombinant from pET24/lpls-pld in E. coli BL21(DE3); purified on HisTrap HP) TTRTTDNPWLDARVLNMAHAGGENEAPANTLYAFKRAVKLGANMLELDVQSTKDDQLVVIHNATVDQTTDGTGKVRDLTFEQVHELDAAYNFIPGRHAVPGEPPESYPLRGVRTGEKKPPPGYQPSDFAIPKLADVLEAFPRTPINIEIKGTSDADIPSFLHNAKLLARLLKKTGRTDFIVTSFNDLAVAKFHLLAPDIPIAPGMAGLAAYFLLGVKPMHGTVALQIPVRYQGLEIATPEFIRRAHADGYAVHVGFSGTAPDDEATYNRIIDSCADGLMPAYPALLERILDERGIERPGRPGVDPCG , the value recorded as its Km is 71.7

Given item LyPls-PLD (lysoplasmalogen-specific phospholipase D) (Thermocrispum sp. RD004668; N173A) (protein, recombinant from pET24/lpls-pld in E. coli BL21(DE3); purified on HisTrap HP) TTRTTDNPWLDARVLNMAHAGGENEAPANTLYAFKRAVKLGANMLELDVQSTKDDQLVVIHNATVDQTTDGTGKVRDLTFEQVHELDAAYNFIPGRHAVPGEPPESYPLRGVRTGEKKPPPGYQPSDFAIPKLADVLEAFPRTPIAIEIKGTSDADIPSFLHNAKLLARLLKKTGRTDFIVTSFNDLAVAKFHLLAPDIPIAPGMAGLAAYFLLGVKPMHGTVALQIPVRYQGLEIATPEFIRRAHADGYAVHVWFSGTAPDDEATYNRIIDSCADGLMPAYPALLERILDERGIERPGRPGVDPCG , the value recorded as its Km is 110

Given item LyPls-PLD (lysoplasmalogen-specific phospholipase D) (Thermocrispum sp. RD004668) (protein, recombinant from pET24/lpls-pld in E. coli BL21(DE3); purified on HisTrap HP) TTRTTDNPWLDARVLNMAHAGGENEAPANTLYAFKRAVKLGANMLELDVQSTKDDQLVVIHNATVDQTTDGTGKVRDLTFEQVHELDAAYNFIPGRHAVPGEPPESYPLRGVRTGEKKPPPGYQPSDFAIPKLADVLEAFPRTPINIEIKGTSDADIPSFLHNAKLLARLLKKTGRTDFIVTSFNDLAVAKFHLLAPDIPIAPGMAGLAAYFLLGVKPMHGTVALQIPVRYQGLEIATPEFIRRAHADGYAVHVWFSGTAPDDEATYNRIIDSCADGLMPAYPALLERILDERGIERPGRPGVDPCG , the value recorded as its Km is 56.4

Given item LyPls-PLD (lysoplasmalogen-specific phospholipase D) (Thermocrispum sp. RD004668; F211C) (protein, recombinant from pET24/lpls-pld in E. coli BL21(DE3); purified on HisTrap HP) TTRTTDNPWLDARVLNMAHAGGENEAPANTLYAFKRAVKLGANMLELDVQSTKDDQLVVIHNATVDQTTDGTGKVRDLTFEQVHELDAAYNFIPGRHAVPGEPPESYPLRGVRTGEKKPPPGYQPSDFAIPKLADVLEAFPRTPINIEIKGTSDADIPSFLHNAKLLARLLKKTGRTDFIVTSCNDLAVAKFHLLAPDIPIAPGMAGLAAYFLLGVKPMHGTVALQIPVRYQGLEIATPEFIRRAHADGYAVHVWFSGTAPDDEATYNRIIDSCADGLMPAYPALLERILDERGIERPGRPGVDPCG , the value recorded as its Km is 52.2

Given item LyPls-PLD (lysoplasmalogen-specific phospholipase D) (Thermocrispum sp. RD004668; F211T) (protein, recombinant from pET24/lpls-pld in E. coli BL21(DE3); purified on HisTrap HP) TTRTTDNPWLDARVLNMAHAGGENEAPANTLYAFKRAVKLGANMLELDVQSTKDDQLVVIHNATVDQTTDGTGKVRDLTFEQVHELDAAYNFIPGRHAVPGEPPESYPLRGVRTGEKKPPPGYQPSDFAIPKLADVLEAFPRTPINIEIKGTSDADIPSFLHNAKLLARLLKKTGRTDFIVTSTNDLAVAKFHLLAPDIPIAPGMAGLAAYFLLGVKPMHGTVALQIPVRYQGLEIATPEFIRRAHADGYAVHVWFSGTAPDDEATYNRIIDSCADGLMPAYPALLERILDERGIERPGRPGVDPCG , the value recorded as its Km is 40.6

Given item LyPls-PLD (lysoplasmalogen-specific phospholipase D) (Thermocrispum sp. RD004668; F211L) (protein, recombinant from pET24/lpls-pld in E. coli BL21(DE3); purified on HisTrap HP) TTRTTDNPWLDARVLNMAHAGGENEAPANTLYAFKRAVKLGANMLELDVQSTKDDQLVVIHNATVDQTTDGTGKVRDLTFEQVHELDAAYNFIPGRHAVPGEPPESYPLRGVRTGEKKPPPGYQPSDFAIPKLADVLEAFPRTPINIEIKGTSDADIPSFLHNAKLLARLLKKTGRTDFIVTSLNDLAVAKFHLLAPDIPIAPGMAGLAAYFLLGVKPMHGTVALQIPVRYQGLEIATPEFIRRAHADGYAVHVWFSGTAPDDEATYNRIIDSCADGLMPAYPALLERILDERGIERPGRPGVDPCG , the value recorded as its Km is 26.8

Given item LyPls-PLD (lysoplasmalogen-specific phospholipase D) (Thermocrispum sp. RD004668; M71G) (protein, recombinant from pET24/lpls-pld in E. coli BL21(DE3); purified on HisTrap HP) TTRTTDNPWLDARVLNMAHAGGENEAPANTLYAFKRAVKLGANGLELDVQSTKDDQLVVIHNATVDQTTDGTGKVRDLTFEQVHELDAAYNFIPGRHAVPGEPPESYPLRGVRTGEKKPPPGYQPSDFAIPKLADVLEAFPRTPINIEIKGTSDADIPSFLHNAKLLARLLKKTGRTDFIVTSFNDLAVAKFHLLAPDIPIAPGMAGLAAYFLLGVKPMHGTVALQIPVRYQGLEIATPEFIRRAHADGYAVHVWFSGTAPDDEATYNRIIDSCADGLMPAYPALLERILDERGIERPGRPGVDPCG , the value recorded as its Km is 69.3
